Measured values drawn from ChEMBL document CHEMBL6182926 for this set.

Target: Cytochrome P450 2C19 (Homo sapiens, UniProt P33261)
Sequence (P33261 whole entry): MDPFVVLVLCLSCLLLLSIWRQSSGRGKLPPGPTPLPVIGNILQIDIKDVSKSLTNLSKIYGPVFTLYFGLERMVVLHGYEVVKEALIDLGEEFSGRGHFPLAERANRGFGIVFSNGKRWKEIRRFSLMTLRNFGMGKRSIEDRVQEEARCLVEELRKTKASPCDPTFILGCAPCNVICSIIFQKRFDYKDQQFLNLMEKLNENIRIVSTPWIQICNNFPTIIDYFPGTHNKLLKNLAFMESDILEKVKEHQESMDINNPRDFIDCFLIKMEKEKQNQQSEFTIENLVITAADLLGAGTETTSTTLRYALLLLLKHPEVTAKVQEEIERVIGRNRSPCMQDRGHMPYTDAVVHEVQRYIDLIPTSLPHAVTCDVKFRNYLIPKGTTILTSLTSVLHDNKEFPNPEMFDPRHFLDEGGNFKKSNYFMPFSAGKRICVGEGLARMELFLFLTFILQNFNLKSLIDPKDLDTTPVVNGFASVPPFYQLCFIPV
Attribute Measured: IC50 (nM)
Enter your answer as a number in nM; do not include the unit.

Incoming: Need IC50, item "[2H]C([2H])([2H])N(Cc1ccc(-c2ccc(OC(F)(F)F)cc2)cc1)[C@H](C)[C@](O)(Cn1cncn1)c1ccc(F)cc1F"
Outgoing: 1710

* * *

Test: Selectivity ratio, ratio of IC50 for cytotoxicity against human SH-SY5Y cells to MIC80 for antifungal activity against Clinical isolate Candida glabrata
Assay type: toxicity, cell-based
Attribute Measured: selectivity ratio

Incoming: Need selectivity ratio, item "[2H]C([2H])([2H])N(Cc1ccc(-c2ccc(OC(F)(F)F)cc2)cc1)[C@H](C)[C@](O)(Cn1cncn1)c1ccc(F)cc1F"
Outgoing: > 100
